The reader will find reported kon values listed item by item below.
target: canine FcRn (FcRn large subunit with canine beta-2-microglobulin) (canine); assay: SPR pH 6.0, SASA-Fc captured on BSA, FcRn 100-800 nM

binder	kon [M⁻¹ s⁻¹]
canine IgGB Fc (CH2-CH3) T286Y with N-terminal SASA tag (Fc fusion, part only; not given: SASA tag, not shown: another chain or arm of the molecule; small tags and cut ends) Fc: APEMLGGPSVFIFPPKPKDTLLIARTPEVTCVVVDLDPEDPEVQISWFVDGKQMQYAKTQPREEQFNGTYRVVSVLPIGHQDWLKGKQFTCKVNNKALPSPIERTISKARGQAHQPSVYVLPPSREELSKNTVSLTCLIKDFFPPDIDVEWQSNGQQEPESKYRTTPPQLDEDGSYFLYSKLSVDKSRWQRGDTFICAVMHEALHNHYTQESLSHSPGK	256000
canine IgGB Fc (CH2-CH3) T286L with N-terminal SASA tag (Fc fusion, part only; not given: SASA tag, not shown: another chain or arm of the molecule; small tags and cut ends) Fc: APEMLGGPSVFIFPPKPKDTLLIARTPEVTCVVVDLDPEDPEVQISWFVDGKQMQLAKTQPREEQFNGTYRVVSVLPIGHQDWLKGKQFTCKVNNKALPSPIERTISKARGQAHQPSVYVLPPSREELSKNTVSLTCLIKDFFPPDIDVEWQSNGQQEPESKYRTTPPQLDEDGSYFLYSKLSVDKSRWQRGDTFICAVMHEALHNHYTQESLSHSPGK	325000
canine IgGB Fc (CH2-CH3) T286F with N-terminal SASA tag (Fc fusion, part only; not given: SASA tag, not shown: another chain or arm of the molecule; small tags and cut ends) Fc: APEMLGGPSVFIFPPKPKDTLLIARTPEVTCVVVDLDPEDPEVQISWFVDGKQMQFAKTQPREEQFNGTYRVVSVLPIGHQDWLKGKQFTCKVNNKALPSPIERTISKARGQAHQPSVYVLPPSREELSKNTVSLTCLIKDFFPPDIDVEWQSNGQQEPESKYRTTPPQLDEDGSYFLYSKLSVDKSRWQRGDTFICAVMHEALHNHYTQESLSHSPGK	309000
